B1: H2-Kb / Ed39 (parent complex)
chain 1: GEQVEQRPPHLSVREGDSAVIICTYTDPNSYYFFWYKQEPGAGLQLLMKVFSSTEINEGQGFTVLLNKKDKQLSLNLTAAHPGDSAVYFCATMSNYNVLYFGSGTKLTVEP
chain 2: GALVYQYPRRTICKSGTSMRMECQAVGFQATSVAWYRQSPQKTFELIALSTVNSAIKYEQNFTQEKFPISHPNLSFSSMTVLNAYLEDRGLYLCGARDGSYEQYFGPGTRLTVL
chain 3: not shown
chain 4: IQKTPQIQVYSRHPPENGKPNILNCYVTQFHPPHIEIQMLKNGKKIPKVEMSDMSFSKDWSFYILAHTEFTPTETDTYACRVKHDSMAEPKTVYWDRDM
chain 5: SIINFEKL

Variants of: B1
assay-comment: % of reporter cells activated (NFAT-GFP), raw; further: test concentration or dose not given here
property-label: ratio to parent

variant-notation | ratio to parent
chain 5 S1P | 0.00622
chain 5 K7M | 0.665
chain 5 I2A | 0.954
chain 5 N4Y | 0.0203
chain 5 L8Y | 0.83

A = chain 5 F5D
B = chain 5 S1I
stdin: Rank A against B by their ratio to parent values and give the higher one. Lab note: record the label of whichever item you select.
stdout: A

Source listed as paper PMC11480844.
